Values from patent US8481592B2

experiment: Physical characteristics of the compounds (solubility, stability); details: easily dissolved in organic solvent having lower polarity than ethanol, but not water
Counter-ions that a name gives are not always drawn.
attribute_measured: Solubility

Please review the following examples before continuing.
[[record]]
compound = "C=C1[C@@H](O)C[C@@]23C[C@@H]1C(C)(C)C2CC[C@H]3C (single isomer, unassigned; (+)) [(+)-8(15)-cedrene-9-ol, (+)-8(15)-Cedren-9-ol]"
attribute_measured = "Solubility"
result = "Fat soluble"

[[record]]
compound = "C[C@@H]1CC[C@H]2C(C)(C)[C@H]3C[C@@]12CC[C@@]3(C)OC=O [cedryl formate, Cedryl formate]"
attribute_measured = "Solubility"
result = "Fat soluble"

[[record]]
compound = "C=C1C2CCC3C2[C@@H](C(C)C)CC[C@@]13C (single isomer, unassigned; (+)) [(+)-sativene]"
attribute_measured = "Solubility"
result = "Fat soluble"

[[record]]
compound = "CC(=O)O[C@]1(C)CC[C@@]23C[C@@H]1C(C)(C)[C@@H]2CC[C@H]3C [Cedryl acetate, cedryl acetate]"
attribute_measured = "Solubility"
result = "Fat soluble"

[[record]]
compound = "C[C@@H]1CC[C@H]2C(C)(C)[C@H]3C[C@@]12CC1OC13C (stereo partly drawn) [cedrene epoxide, Cedrene epoxide]"
attribute_measured = "Solubility"
result = "Fat soluble"


For every item below, please supply its Solubility.
1. C=C1CC[C@@]23C[C@@H]1C(C)(C)C2CC[C@H]3C (stereo partly drawn) [(+)-β-cedrene]
2. CO[C@]1(C)CC[C@@]23C[C@@H]1C(C)(C)[C@@H]2CC[C@H]3C
3. CC1=CCC23CC1C(C)(CO)C2CCC3C (stereo not drawn)
4. CC1=CC[C@@]23C[C@@H]1C(C)(C)C2CC[C@H]3C (stereo partly drawn) [(−)-α-cedrene]

Result:
Fat soluble
Fat soluble
Fat soluble
Fat soluble

For every item below, please supply its Solubility.
1. CC1=CC[C@]23C[C@H]1C(C)(C)C2CC[C@H]3C (stereo partly drawn) [(+)-α-funebrene]
2. CC1(C)C=C[C@]23CCC[C@](C)(CCC12)C3 (single isomer, unassigned; (-)) [(−)-clovene, (−)-Clovene]
3. C=C1CC[C@]23C[C@H]1C(C)(C)C2CC[C@H]3C (stereo partly drawn) [(+)-β-funebrene]

Result:
Fat soluble
Fat soluble
Fat soluble
